test_system: MMP 13 (Homo sapiens)
measure: pIC50
Numbers only, as −log10 of the molar value.

State its pIC50 on MMP 13 (Homo sapiens): `CNC(=O)[C@H](Cc1c[nH]c2ccccc12)NC(=O)[C@@H](CC(=O)NO)CC(C)C`
9.27

* * *

test_system: Kallikrein 13 (Homo sapiens)
Sequence (Q9UKR3 17-277): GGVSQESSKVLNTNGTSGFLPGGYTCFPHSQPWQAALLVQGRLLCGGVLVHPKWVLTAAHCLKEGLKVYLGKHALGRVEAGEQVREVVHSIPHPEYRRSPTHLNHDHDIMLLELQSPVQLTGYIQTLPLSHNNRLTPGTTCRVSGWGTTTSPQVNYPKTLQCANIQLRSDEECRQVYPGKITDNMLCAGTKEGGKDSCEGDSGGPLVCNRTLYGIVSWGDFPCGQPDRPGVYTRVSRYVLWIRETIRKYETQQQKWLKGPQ
test_method_notes: Protease panel: Kallikrein 13
Type: biochemical
assay_context: supplement panel table, test and control compound
Where a name gives a salt, the structure may show the parent alone.
measure: IC50 (µM)
One number for each entry, in µM.

What value of measured IC50 is listed for CCOC(=O)c1ccc(OC(=O)CCCCCN=C(N)N)cc1 [Gabexate mesylate (GM), Gabexate mesylate] ?
17.6

* * *

test_method_notes: Thermodynamic aqueous solubility
Format: physicochemical
assay_context: aqueous medium at pH 7.4, aqueous buffer, thermodynamic from solid; pH 7.4, text; read-out: aqueous solubility
measure: solubility

What value of measured solubility is listed for `O=C(N[C@@H](Cc1ccccn1)C(=O)N[C@@H](CCc1ccccc1)B(O)O)c1cnccn1` ?
> 400 µg/mL

* * *

test_method_notes: Intravenous/oral pharmacokinetics and tissue distribution in mice
Assay type: in vivo
assay_context: female, ICR, mouse, po, 100 mg/kg p.o., brain, read-out: Tmax, Brain
measure: Tmax (min)
Answers are plain numbers, in min.

What value of measured Tmax is listed for `O=C(N[C@@H](Cc1ccccn1)C(=O)N[C@@H](CCc1ccccc1)B(O)O)c1cnccn1` ?
12
